The values you see were collected from ChEMBL document CHEMBL3044968.

- Tested on: Mus musculus
- ASSAY REMARKS: Neurotoxicity in Mus musculus Kunming (mouse) at 30 mg/kg, ip measured after 30 min by rotarod test
- Format: toxicity, organism-based
- Design: dose 30 mg/kg, route intraperitoneal
- MEASUREMENT SETUP: in vivo, 0.5 h
MEASUREMENT NAME: Activity

{"COMPOUND": "CCCCCCCCCCCCCCCC(=O)NCCO", "Activity": "Non-toxic"}
{"COMPOUND": "O=C(/C=C/c1ccccc1)NCCCO", "Activity": "Non-toxic"}
{"COMPOUND": "CCCCCCCCCCCCCCCCCC(=O)N(C)CCO", "Activity": "Non-toxic"}
{"COMPOUND": "CCCCCCCCCCCCCCCCCC(=O)NCCCO", "Activity": "Non-toxic"}
{"COMPOUND": "O=C(/C=C/c1ccccc1)NCCO [IDROCILAMIDE]", "Activity": "Non-toxic"}

Form: compound = CN(CCO)C(=O)/C=C/c1ccccc1 ; Activity = Non-toxic

Form: compound = CCCCCCCCCCCCCCCCCC(=O)NCCO [N-(2-HYDROXYETHYL)STEARAMIDE] ; Activity = Non-toxic

Form: compound = CCCCCCCCCCCCCCCC(=O)N(CC)CC [HEXADECANOIC ACID DIETHYLAMIDE] ; Activity = Non-toxic

Form: compound = CCN(CC)C(=O)/C=C/c1ccccc1 [N,N-DIETHYLCINNAMAMIDE] ; Activity = Non-toxic

Form: compound = CCCCCCCCCCCCCCCC(=O)NCCCO [N-(3-HYDROXYPROPYL)PALMITAMIDE] ; Activity = Non-toxic

Form: compound = CCCCCCCCCCCCCCCCCC(=O)N(CC)CC [N,N-DIETHYLSTEARAMIDE] ; Activity = Non-toxic

Form: compound = CCCCCCCCCCCCCCCC(=O)N(CCO)CCO ; Activity = Non-toxic

Form: compound = CN(C)C(=O)/C=C/c1ccccc1 [N,N-DIMETHYLCINNAMAMIDE] ; Activity = Non-toxic

----------
- System: Mus musculus
- ASSAY REMARKS: Neurotoxicity in Mus musculus Kunming (mouse) at 30 mg/kg, ip measured after 4 hr by rotarod test
- Format: toxicity, organism-based
- Set-up: dose 30 mg/kg, route intraperitoneal
- MEASUREMENT SETUP: in vivo
MEASUREMENT NAME: Activity

Solved cases below.
{"MOLECULE": "CCCCCCCCCCCCCCCC(=O)N(CC)CC [HEXADECANOIC ACID DIETHYLAMIDE]", "Activity": "Non-toxic"}
{"MOLECULE": "CCCCCCCCCCCCCCCCCC(=O)N(C)CCO", "Activity": "Non-toxic"}
{"MOLECULE": "CCCCCCCCCCCCCCCC(=O)N(CCO)CCO", "Activity": "Non-toxic"}
{"MOLECULE": "CCCCCCCCCCCCCCCCCC(=O)N(CC)CC [N,N-DIETHYLSTEARAMIDE]", "Activity": "Non-toxic"}
{"MOLECULE": "CCN(CC)C(=O)/C=C/c1ccccc1 [N,N-DIETHYLCINNAMAMIDE]", "Activity": "Non-toxic"}
{"MOLECULE": "CCCCCCCCCCCCCCCC(=O)NCCCO [N-(3-HYDROXYPROPYL)PALMITAMIDE]", "Activity": "Non-toxic"}
{"MOLECULE": "CN(C)C(=O)/C=C/c1ccccc1 [N,N-DIMETHYLCINNAMAMIDE]", "Activity": "Non-toxic"}
{"MOLECULE": "O=C(/C=C/c1ccccc1)NCCO [IDROCILAMIDE]", "Activity": "Non-toxic"}
{"MOLECULE": "CN(CCO)C(=O)/C=C/c1ccccc1", "Activity": "Non-toxic"}
{"MOLECULE": "CCCCCCCCCCCCCCCC(=O)NCCO [PALMIDROL]", "Activity": "Non-toxic"}

Form: molecule = O=C(/C=C/c1ccccc1)NCCCO ; Activity = Non-toxic

Form: molecule = CCCCCCCCCCCCCCCCCC(=O)NCCCO ; Activity = Non-toxic

Form: molecule = CCCCCCCCCCCCCCCCCC(=O)NCCO [N-(2-HYDROXYETHYL)STEARAMIDE] ; Activity = Non-toxic

----------
- System: Mus musculus
- ASSAY REMARKS: Anticonvulsant activity in Mus musculus Kunming (mouse) assessed as protection against maximal electroshock-induced seizure at 30 mg/kg, ip measured after 30 min
- Assay type: functional, organism-based
- Design: dose 30 mg/kg
Calls of active or inactive are those of the source. The calls are words filed in the database; no cut-off is given here.
Choose one outcome from this list and give only that: active, inactive

Illustrative cases are given below, each with its answer.
{"MOLECULE": "CCCCCCCCCCCCCCCCCC(=O)N(CC)CC [N,N-DIETHYLSTEARAMIDE]", "TEST SYSTEM": "Mus musculus", "ASSIGNED CATEGORY": "inactive"}
{"MOLECULE": "O=C(/C=C/c1ccccc1)NCCCO", "TEST SYSTEM": "Mus musculus", "ASSIGNED CATEGORY": "inactive"}
{"MOLECULE": "CCN(CC)C(=O)/C=C/c1ccccc1 [N,N-DIETHYLCINNAMAMIDE]", "TEST SYSTEM": "Mus musculus", "ASSIGNED CATEGORY": "inactive"}
{"MOLECULE": "CCCCCCCCCCCCCCCC(=O)NCCCO [N-(3-HYDROXYPROPYL)PALMITAMIDE]", "TEST SYSTEM": "Mus musculus", "ASSIGNED CATEGORY": "inactive"}
{"MOLECULE": "CCCCCCCCCCCCCCCCCC(=O)NCCO [N-(2-HYDROXYETHYL)STEARAMIDE]", "TEST SYSTEM": "Mus musculus", "ASSIGNED CATEGORY": "active"}
{"MOLECULE": "CCCCCCCCCCCCCCCCCC(=O)NCCCO", "TEST SYSTEM": "Mus musculus", "ASSIGNED CATEGORY": "inactive"}

Please share the test call associated with CN(CCO)C(=O)/C=C/c1ccccc1 .
inactive

Please share the test call associated with CN(C)C(=O)/C=C/c1ccccc1 [N,N-DIMETHYLCINNAMAMIDE] .
inactive

Please share the test call associated with CCCCCCCCCCCCCCCC(=O)N(CC)CC [HEXADECANOIC ACID DIETHYLAMIDE] .
inactive

Please share the test call associated with O=C(/C=C/c1ccccc1)NCCO [IDROCILAMIDE] .
active

Please share the test call associated with CCCCCCCCCCCCCCCCCC(=O)N(C)CCO .
inactive

Please share the test call associated with CCCCCCCCCCCCCCCC(=O)N(CCO)CCO .
inactive

----------
- Test system: Mus musculus
- ASSAY REMARKS: Neurotoxicity in Mus musculus Kunming (mouse) at 300 mg/kg, ip measured after 30 min by rotarod test
- Type: toxicity, organism-based
- Design: dose 300 mg/kg, route intraperitoneal
- MEASUREMENT SETUP: in vivo, 0.5 h
MEASUREMENT NAME: Activity

{"COMPOUND": "O=C(/C=C/c1ccccc1)NCCCO", "Activity": "Toxic"}
{"COMPOUND": "CCCCCCCCCCCCCCCC(=O)NCCO", "Activity": "Non-toxic"}
{"COMPOUND": "CN(CCO)C(=O)/C=C/c1ccccc1", "Activity": "Toxic"}
{"COMPOUND": "O=C(/C=C/c1ccccc1)NCCO [IDROCILAMIDE]", "Activity": "Toxic"}
{"COMPOUND": "CCCCCCCCCCCCCCCC(=O)NCCCO [N-(3-HYDROXYPROPYL)PALMITAMIDE]", "Activity": "Non-toxic"}

The observed Activity for CCCCCCCCCCCCCCCCCC(=O)N(C)CCO when tested with Mus musculus stands at Non-toxic

----------
- System: Mus musculus
- ASSAY REMARKS: Anticonvulsant activity in Mus musculus Kunming (mouse) assessed as protection against maximal electroshock-induced seizure at 100 mg/kg, ip measured after 4 hr
- Format: functional, organism-based
- Set-up: dose 100 mg/kg
Calls of active or inactive are those of the source. The calls are words filed in the database; no cut-off is given here.
MEASUREMENT NAME: Activity

Solved cases below.
{"COMPOUND": "CCCCCCCCCCCCCCCCCC(=O)NCCO [N-(2-HYDROXYETHYL)STEARAMIDE]", "Activity": "inactive"}
{"COMPOUND": "CCCCCCCCCCCCCCCC(=O)N(CCO)CCO", "Activity": "inactive"}
{"COMPOUND": "O=C(/C=C/c1ccccc1)NCCCO", "Activity": "inactive"}
{"COMPOUND": "CCCCCCCCCCCCCCCC(=O)NCCCO [N-(3-HYDROXYPROPYL)PALMITAMIDE]", "Activity": "inactive"}

// moving on: another record for Activity
Form: compound = CCCCCCCCCCCCCCCCCC(=O)NCCCO ; Activity = inactive
